- Read-out: solute carrier (SLC22A1), SLC22A1 (gene 6580)
- Method description: LTEA_HepaRG_SLC22A1: Life Technologies and Expression Analysis (LTEA) Assay for solute carrier (SLC22A1) using HepaRG (AID 2283524)
- Experimental context: mRNA level, 48 h; actives raise or lower the signal
Calls of active or inactive are those of the source. The calls were made as follows: active = hit-call score of the fitted dose curve at least 0.9, where 1 is the maximum; inactive = score below 0.9.
Outcomes: active, inactive

{"Compound": "CN(C)C(=O)Nc1cccc(C(F)(F)F)c1", "Label class": "inactive"}
{"Compound": "CN1COCN(Cc2cnc(Cl)s2)C1=N[N+](=O)[O-]", "Label class": "inactive"}
{"Compound": "CCC(=NOC/C=C/Cl)C1=C(O)CC(C2CCOCC2)CC1=O (stereo unspecified)", "Label class": "inactive"}
{"Compound": "COc1ccc(C(=CC(=O)N2CCOCC2)c2ccc(Cl)cc2)cc1OC", "Label class": "inactive"}
{"Compound": "O=[N+]([O-])c1cc(C(F)(F)F)c(Cl)c([N+](=O)[O-])c1Nc1ncc(C(F)(F)F)cc1Cl", "Label class": "active"}
{"Compound": "CC(=NC#N)N(C)Cc1ccc(Cl)nc1", "Label class": "inactive"}
{"Compound": "CCOP(=O)(SC(C)CC)N1CCSC1=O (stereo unspecified)", "Label class": "inactive"}
{"Compound": "Cc1ccn2nc(S(=O)(=O)Nc3c(F)cccc3F)nc2n1", "Label class": "inactive"}
{"Compound": "CC(COc1ccc(Oc2ccccc2)cc1)Oc1ccccn1 (stereo unspecified)", "Label class": "active"}
{"Compound": "CCCSP(=O)(OCC)Oc1ccc(Br)cc1Cl (stereo unspecified)", "Label class": "inactive"}
{"Compound": "CC(C1CC1)C(O)(Cn1cncn1)c1ccc(Cl)cc1 (stereo unspecified)", "Label class": "active"}
{"Compound": "CCOC(=O)COc1cc(-c2nn(C)c(OC(F)F)c2Cl)c(F)cc1Cl", "Label class": "inactive"}
{"Compound": "CCC(=O)Nc1ccc(Cl)c(Cl)c1", "Label class": "active"}
{"Compound": "COP(=O)(OC)SCn1c(=O)oc2cc(Cl)cnc21", "Label class": "active"}
{"Compound": "CCOP(=S)(OCC)Oc1cc(C)nc(C(C)C)n1", "Label class": "inactive"}
{"Compound": "CN(C)NC(=O)CCC(=O)O", "Label class": "inactive"}
{"Compound": "CCCCN(CC)c1c([N+](=O)[O-])cc(C(F)(F)F)cc1[N+](=O)[O-]", "Label class": "inactive"}
{"Compound": "CCOP(=S)(OCC)Oc1ccc2c(C)c(Cl)c(=O)oc2c1", "Label class": "active"}
{"Compound": "CCCOCC(=Nc1ccc(Cl)cc1C(F)(F)F)n1ccnc1", "Label class": "active"}
{"Compound": "CCOP(=O)(OCC)Oc1cc(C)nc(C(C)C)n1", "Label class": "inactive"}
{"Compound": "CSc1nc(NC(C)C)nc(NC(C)C)n1", "Label class": "active"}
{"Compound": "N#CSCSC#N", "Label class": "active"}
{"Compound": "CCNc1nc(Cl)nc(NC(C)(C)C#N)n1", "Label class": "inactive"}
{"Compound": "CC(C)[C@H](C(=O)O[C@H](C#N)c1cccc(Oc2ccccc2)c1)c1ccc(Cl)cc1", "Label class": "inactive"}
{"Compound": "COP(=O)(NC(C)=O)SC (stereo unspecified)", "Label class": "inactive"}
{"Compound": "COc1cc(OC)nc(Sc2cccc(Cl)c2C(=O)O)n1", "Label class": "inactive"}
{"Compound": "CNc1cnn(-c2cccc(C(F)(F)F)c2)c(=O)c1Cl", "Label class": "active"}
{"Compound": "COP(=O)(OC)C(O)C(Cl)(Cl)Cl (stereo unspecified)", "Label class": "inactive"}
{"Compound": "CCOC(=O)CC(SP(=O)(OC)OC)C(=O)OCC (stereo unspecified)", "Label class": "inactive"}
{"Compound": "CCc1cccc(C)c1N(C(=O)CCl)C(C)COC (stereo unspecified)", "Label class": "inactive"}
{"Compound": "CC(C)=CC1C(C(=O)OCN2C(=O)C3=C(CCCC3)C2=O)C1(C)C (stereo unspecified)", "Label class": "inactive"}

* * *

- Read-out: Cytochrome P450 (CYP2B6), CYP2B6 (gene 1555)
- Method description: LTEA_HepaRG_CYP2B6: Life Technologies and Expression Analysis (LTEA) Assay for Cytochrome P450 (CYP2B6) using HepaRG (AID 2283481)
- Experimental context: mRNA level, 48 h; actives raise or lower the signal
Calls of active or inactive are those of the source. Rule for the calls: active = hit-call score of the fitted dose curve at least 0.9, where 1 is the maximum; inactive = score below 0.9.
Outcomes: active, inactive

{"Chemical structure": "CCNc1nc(Cl)nc(NC(C)(C)C#N)n1", "Label class": "active"}
{"Chemical structure": "CCC(CC)Nc1c([N+](=O)[O-])cc(C)c(C)c1[N+](=O)[O-]", "Label class": "active"}
{"Chemical structure": "CON=C(C(=O)OC)c1ccccc1CON=C(C)c1cccc(C(F)(F)F)c1", "Label class": "inactive"}
{"Chemical structure": "CC(C)[C@H](C(=O)O[C@H](C#N)c1cccc(Oc2ccccc2)c1)c1ccc(Cl)cc1", "Label class": "active"}

* * *

- Read-out: Interleukin-8 (IL8), CXCL8 (gene 3576)
- Method description: BSK_SAg_IL8: BioMAP Diversity Plus: SAg Assay for Interleukin-8 (IL8) Biomarker Activity (AID 2283094)
- Experimental context: primary human HUVEC with PBMC; actives raise or lower the signal
- Description: BSK_SAg is a cell-based, multiplexed-readout assay that uses umbilical vein endothelium and peripheral blood mononuclear cells, a human vascular primary cell co-culture, with measurements taken at 24 hours after chemical dosing in a 96-well plate.BSK_SAg_IL8 is an assay component measured in the BSK_SAg assay. It measures IL-8 antibody related to regulation of gene expression using ELISA technology.Data from the assay component BSK_SAg_IL8 was analyzed into 1 assay endpoint. […]
Activity calls are given as the source filed them. How the source made its calls: active means hit-call score of the fitted dose curve at least 0.9, where 1 is the maximum; inactive means score below 0.9.
Outcomes: t for active, f for inactive

{"Compound": "COP(=O)(NC(C)=O)SC (stereo unspecified)", "Label class": "f"}
{"Compound": "CN(C)C(=O)Nc1cccc(C(F)(F)F)c1", "Label class": "f"}
{"Compound": "C#CC(C)(C)NC(=O)c1cc(Cl)cc(Cl)c1", "Label class": "f"}
{"Compound": "CCCCOC(=O)c1ccccc1C(=O)O", "Label class": "f"}
{"Compound": "CC(=NC#N)N(C)Cc1ccc(Cl)nc1", "Label class": "f"}
{"Compound": "CCCOCC(=Nc1ccc(Cl)cc1C(F)(F)F)n1ccnc1", "Label class": "t"}
{"Compound": "COc1cccc(C(=O)NN(C(=O)c2cc(C)cc(C)c2)C(C)(C)C)c1C", "Label class": "f"}
{"Compound": "CSc1nc(NC(C)C)nc(NC(C)C)n1", "Label class": "f"}
{"Compound": "COc1ccc(C(=CC(=O)N2CCOCC2)c2ccc(Cl)cc2)cc1OC", "Label class": "t"}
{"Compound": "CCc1cccc(CC)c1N(COC)C(=O)CCl", "Label class": "f"}
{"Compound": "CCCSP(=O)(OCC)Oc1ccc(Br)cc1Cl (stereo unspecified)", "Label class": "t"}
{"Compound": "CON=C(C(=O)OC)c1ccccc1CON=C(C)c1cccc(C(F)(F)F)c1", "Label class": "t"}
{"Compound": "CC1=NNC(=O)N(/N=C/c2cccnc2)C1", "Label class": "f"}
{"Compound": "CCCCSP(=O)(SCCCC)SCCCC", "Label class": "t"}
{"Compound": "CSC1=N[C@@](C)(c2ccccc2)C(=O)N1Nc1ccccc1", "Label class": "t"}
{"Compound": "CCc1cccc(C)c1N(C(=O)CCl)C(C)COC (stereo unspecified)", "Label class": "f"}
{"Compound": "CC(Oc1cccc(Cl)c1)C(=O)O (stereo unspecified)", "Label class": "f"}
{"Compound": "CCc1cnc(C2=NC(C)(C(C)C)C(=O)N2)c(C(=O)O)c1 (stereo unspecified)", "Label class": "f"}
{"Compound": "CNc1cnn(-c2cccc(C(F)(F)F)c2)c(=O)c1Cl", "Label class": "t"}
{"Compound": "C[Si](Cn1cncn1)(c1ccc(F)cc1)c1ccc(F)cc1", "Label class": "t"}
{"Compound": "COP(=O)(OC)C(O)C(Cl)(Cl)Cl (stereo unspecified)", "Label class": "f"}

* * *

- Method description: BSK_CASM3C_Proliferation: Cell Proliferation Assessment in the BioMAP Diversity Plus: CASM3C Assay (AID 2283047);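 also: sulforhodamine B total protein stain as relative cell number at 560 nm; sub-confluent cells exposed 48 h before staining; fitted both ways against DMSO so gain or loss of cell number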
- Experimental context: primary human coronary artery smooth muscle cells
Active and inactive are the calls of the source. How the source made its calls: active means hit-call score of the fitted dose curve at least 0.9, where 1 is the maximum; inactive means score below 0.9.
Outcomes: active, inactive

{"Compound": "CCCCSP(=O)(SCCCC)SCCCC", "Label class": "active"}
{"Compound": "N#CSCSC#N", "Label class": "active"}
{"Compound": "S=C1NCCN1", "Label class": "inactive"}
{"Compound": "CCCSP(=O)(OCC)Oc1ccc(Br)cc1Cl (stereo not drawn)", "Label class": "active"}
{"Compound": "CCC(=NOC/C=C/Cl)C1=C(O)CC(C2CCOCC2)CC1=O (stereo not drawn)", "Label class": "inactive"}
{"Compound": "Cc1nn(-c2cc(NS(C)(=O)=O)c(Cl)cc2Cl)c(=O)n1C(F)F", "Label class": "inactive"}
{"Compound": "CC(C1CC1)C(O)(Cn1cncn1)c1ccc(Cl)cc1 (stereo not drawn)", "Label class": "inactive"}
{"Compound": "C[Si](Cn1cncn1)(c1ccc(F)cc1)c1ccc(F)cc1", "Label class": "inactive"}
